# reported protein stability index; entries follow
- experiment_summary: protein stability index of a GFP-peptide fusion (yeast GPS) (PSI 1-4); higher = more stable; sorted into four equal gates, so the index is relative within each strain
- measurement_parameters: ubr1∆
Note: the reply should be a number with no unit written.

The cases that follow already have their protein stability index on record.
QLEEDENITNKVTEKVL [CSI1]; 3.13
FDEEFDPFKTSSFNKRS [IRR1]; 2.78
NSSKPAFSFGAKSNEDK [YJL041W/NSP1]; 3.33
NFALTTLIDLVKHSPGA [ECM29]; 2.13
ATQVKTDNTVDKFDFYK [RPT3]; 3.09

API: the following record is the query input.
stdin: Need protein stability index of KGKDFEITAKEVYDFTH [FAS1] , thanks.
stdout: 3.05
